Hello, the source for this data is ChEMBL document CHEMBL1201862, in case you need it.

Test system: SW-620
TEST_SUMMARY: NCI tumour cell line growth inhibition, 48 h
The source made the active and inactive calls. Cut-off read from the data, not from the text of the source: active = GI50 up to about 1.1 µM and inactive = higher.
So I've got a bunch of compounds here, and I need their GI50 values.

Completed entries (count: 2):
{"COMPOUND": "Cc1c(C)c(S(=O)(=O)N(CCCN)OCCCN)c(C)c2c1OC(C)(C)CC2", "RESULT": "15.1 µM (inactive)"}
{"COMPOUND": "O=C(CC(=O)N1N=C(N2c3ccccc3Sc3ccccc32)CC1c1ccccc1)Nc1ccc(Cl)cc1 (stereo not drawn)", "RESULT": "> 100 µM (inactive)"}

Next item in the queue.
[ask] I'd like to know its GI50. The compound in question is CC(C)NC(=O)OCCN=C1c2ccccc2C(Br)C(Br)c2ccccc21 (stereo not drawn)
[reply] 3.76 µM (inactive)

---

Test system: MCF7
TEST_SUMMARY: NCI tumour cell line growth inhibition, 48 h
Calls of active or inactive are those of the source. Cut-off read from the data, not from the text of the source: active = GI50 up to about 1.1 µM and inactive = higher.
Assign GI50 to each entry below.

Past entries and their recorded results:
{"COMPOUND": "C=C(Cl)CN1c2ccccc2C=Cc2ccccc21", "TEST_SYSTEM": "MCF7", "GI50": "15.2 µM (inactive)"}
{"COMPOUND": "CCC1([N+](=O)[O-])CC2C=CC1C2 (configuration not stated)", "TEST_SYSTEM": "MCF7", "GI50": "> 100 µM (inactive)"}
{"COMPOUND": "CC(=O)CC[N+](C)(C)C", "TEST_SYSTEM": "MCF7", "GI50": "30.3 µM (inactive)"}
{"COMPOUND": "C=CCC1(Sc2ccccn2)Sc2ccc3ccccc3c2-c2c(ccc3ccccc23)S1", "TEST_SYSTEM": "MCF7", "GI50": "> 100 µM (inactive)"}
{"COMPOUND": "C/C(=N/c1[nH]c(=O)cc2c1C(=O)CC2)N(C)C", "TEST_SYSTEM": "MCF7", "GI50": "> 200 µM (inactive)"}

Value sought for every listed compound: GI50.
1. COC(=O)C(CCSC)NC(=O)CSc1nnc(COc2ccc(Cl)cc2)n1-c1ccccc1 (configuration not stated)
2. CCOC(=O)C1=C(C(=O)c2ccc(C)cc2)C(c2cccc([N+](=O)[O-])c2)C(C(=O)c2ccc(C)cc2)=C(C(=O)OCC)N1
3. O=C(NCc1ccccc1)c1cc2ccccc2o/c1=N\c1ccccc1F

[reply]
["21.1 µM (inactive)", "16 µM (inactive)", "33.7 µM (inactive)"]

// each listed compound needs a value for GI50
1. C[C@@H]1C[C@@H]2OC(=O)[C@]3(C)[C@H]2[C@@H](OC3(C)O)[C@]2(C)C(=O)C=C[C@@H]12 (some centres not stated)
2. C=C1CC/C=C(\C)CCC[C@H](C)[C@@H](O)[C@@H]2OC(=O)C(=C)[C@@H]2C[C@H]1O
3. CS/C(=N\C#N)NC1CC(n2cc(C)c(=O)[nH]c2=O)OC1CO (configuration not stated)
4. N=c1c2c(=S)n(-c3ccccc3)c(=S)n(-c3ccccc3)c2nc(SCCN2CCOCC2)n1-c1ccccc1
5. C[C@@H](Oc1ccc(Oc2cnc3ccc(Cl)cc3n2)cc1)C(=O)O [R(+)XK469]
6. CN(C(=O)C1=CCC2(CC1)OCCO2)c1ccccc1I

[reply]
["15.7 µM (inactive)", "4 µM (inactive)", "> 100 µM (inactive)", "1.35 µM (inactive)", "39 µM (inactive)", "> 100 µM (inactive)"]

Parameter requested: GI50. Apply to each item below.
1. CN(C)c1ccc(-c2nc(-c3cc4c(ccc5ccccc54)oc3=O)cs2)cc1
2. COc1ccc(OC)c2c(=S)c3ccccc3[nH]c12
3. COc1ccc(CC2NC(=O)/C=C/CC(C(C)C3OC3c3ccccc3)OC(=O)C(CC(C)C)OC(=O)C(C)CNC2=O)cc1Cl (configuration not stated)

[reply]
1: > 100 µM (inactive); 2: 36.7 µM (inactive); 3: 1.34e-05 µM (active)
